Attribute: IC50
- TESTED_ON: beta-catenin/TCF4 engagement (Homo sapiens, UniProt P35222)
- Construct: expressed in transfected cells; host or cells: HEK293
- Sequence (P35222 whole entry): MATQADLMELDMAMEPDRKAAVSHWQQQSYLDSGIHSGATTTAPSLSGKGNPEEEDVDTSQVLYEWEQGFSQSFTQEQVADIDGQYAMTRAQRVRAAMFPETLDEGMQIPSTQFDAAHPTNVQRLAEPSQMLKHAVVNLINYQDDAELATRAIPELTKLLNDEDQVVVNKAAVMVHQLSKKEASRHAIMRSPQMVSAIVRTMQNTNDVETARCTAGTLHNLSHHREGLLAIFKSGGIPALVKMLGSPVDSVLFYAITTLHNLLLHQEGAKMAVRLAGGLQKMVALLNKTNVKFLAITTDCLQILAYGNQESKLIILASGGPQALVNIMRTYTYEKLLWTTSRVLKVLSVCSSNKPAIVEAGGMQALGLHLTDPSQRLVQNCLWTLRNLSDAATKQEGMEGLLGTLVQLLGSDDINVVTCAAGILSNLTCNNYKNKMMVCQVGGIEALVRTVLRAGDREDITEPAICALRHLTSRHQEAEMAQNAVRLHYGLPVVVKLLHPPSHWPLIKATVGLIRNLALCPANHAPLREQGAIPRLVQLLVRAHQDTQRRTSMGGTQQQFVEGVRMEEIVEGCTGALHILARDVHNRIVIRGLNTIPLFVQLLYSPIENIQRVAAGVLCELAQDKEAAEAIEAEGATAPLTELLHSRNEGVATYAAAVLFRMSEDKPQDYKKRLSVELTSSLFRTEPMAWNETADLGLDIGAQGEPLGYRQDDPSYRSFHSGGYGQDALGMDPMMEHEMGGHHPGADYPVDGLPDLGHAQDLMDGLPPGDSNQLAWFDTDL
- ASSAY_TEXT: Nano-BRET target engagement assay (B-cat-Halo & TCF4-Luc in HEK293 cells)
- Type: cell-based
- CONDITION_INFO: absolute IC50; read-out: NanoBRET Abs IC50
PARAMETER: IC50 (µM)

{"columns": ["COMPOUND", "RELATION_SIGN", "OBSERVED_RESULT"],
 "data": [
  ["CC(=O)N1CCC[C@]12CC=CCCCC1(CCCC=CCCCOC(=O)N3CC[C@@](C(=O)N[C@@H](Cc4ccccc4Cl)C(=O)N[C@@H](Cc4csc5ccccc45)C(=O)N[C@@H](CCC(N)=O)C(N)=O)(C3)NC(=O)[C@H](CC(C)C)NC(=O)[C@H](Cc3ccccc3)NC(=O)[C@H](C)NC(=O)[C@H](CCCCNC(C)C)NC(=O)[C@H](CC(=O)O)NC(=O)[C@H](CC(=O)O)NC1=O)NC(=O)[C@H](CC(C)(C)C)NC(=O)[C@H](CC(=O)O)NC2=O (some centres unmarked)", "=", 27.8],
  ["CC(=O)N1CCC[C@]12CC=CCCCC1(CCCC=CCCCOC(=O)N3CC[C@@](C(=O)N[C@@H](Cc4ccsc4)C(=O)N[C@@H](Cc4csc5ccccc45)C(=O)N[C@@H](CCC(N)=O)C(N)=O)(C3)NC(=O)[C@H](Cc3ccccc3)NC(=O)[C@H](Cc3ccccc3)NC(=O)[C@H](C)NC(=O)[C@H](C)NC(=O)[C@H](Cc3cccc(C(=O)O)c3)NC(=O)[C@H](CC(=O)O)NC1=O)NC(=O)[C@H](CC(C)(C)C)NC(=O)[C@H](CC(=O)O)NC2=O (some centres unmarked)", "=", 2.8],
  ["CC(=O)N1CCC[C@]12CC=CCCCC1(CCCC=CCCCOC(=O)N3CC[C@@](C(=O)N[C@@H](Cc4ccccc4C(F)(F)F)C(=O)N[C@@H](Cc4csc5ccccc45)C(=O)N[C@@H](CCC(=O)N4CCOCC4)C(N)=O)(C3)NC(=O)[C@H](Cc3ccccc3)NC(=O)[C@H](Cc3ccccc3)NC(=O)[C@H](C)NC(=O)[C@H](C)NC(=O)[C@H](Cc3cccc(C(=O)O)c3)NC(=O)[C@H](CC(=O)O)NC1=O)NC(=O)[C@H](CC(C)(C)C)NC(=O)[C@H](CC(=O)O)NC2=O (some centres unmarked)", "=", 7.3],
  ["CC(=O)N1CCC[C@]12CC=CCCCC1(CCCC=CCCCOC(=O)N3CC[C@@](C(=O)N[C@@H](Cc4ccsc4)C(=O)N[C@@H](Cc4csc5ccccc45)C(=O)N[C@H](C(N)=O)C(C)C)(C3)NC(=O)[C@H](CC(C)C)NC(=O)[C@H](Cc3ccccc3)NC(=O)[C@H](C)NC(=O)[C@H](C)NC(=O)[C@H](CC(=O)O)NC(=O)[C@H](CC(=O)O)NC1=O)NC(=O)[C@H](CC(C)(C)C)NC(=O)[C@H](CC(=O)O)NC2=O (some centres unmarked)", "=", 23.9],
  ["CC(=O)N1CCC[C@]12CC=CCCCC1(CCCC=CCCCOC(=O)N3CC[C@@](C(=O)N[C@@H](Cc4ccsc4)C(=O)N[C@@H](Cc4csc5ccccc45)C(=O)N[C@@H](CCC(N)=O)C(N)=O)(C3)NC(=O)[C@H](CC(C)C)NC(=O)[C@H](Cc3ccccc3)NC(=O)[C@H](C)NC(=O)[C@H](C)NC(=O)[C@H](CC(=O)O)NC(=O)[C@H](CC(=O)O)NC1=O)NC(=O)[C@H](CCCCNC(=O)C13CC4(C)CC(C)(CC(C)(C4)C1)C3)NC(=O)[C@H](CC(=O)O)NC2=O (some centres unmarked)", ">", 20]
]}

Source: patent US20240116985A1
